Value source: paper PMC6974733

Below is a list of entries, each paired with its recorded ratio to parent value.
- SYSTEM: histone H3/H4 tetramers, P61830;P02309
- ASSAY_TEXT: GST pull-down, H3 immunoblot quantitation
- STATED_CONDITIONS: chain shown with the change; 0.5 μM GST-SANT, 0.5 μM histones, 400 mM NaCl; N = 2; parent: est. 1.0; read off a plot
// print number alone

Worked examples, 3 binders total:
| BINDER | REPORTED |
| --- | --- |
| GST-SANT, P11938 H398A; T399A; G400A (protein) KASFTDEEDEFILDVVRKNPTRRTTHTLYDEISHYVPNAAANSIRHRFRVY | 0.62 |
| GST-SANT, P11938 D389A; E390A; I391A (protein) KASFTDEEDEFILDVVRKNPTRRTTHTLYAAASHYVPNHTGNSIRHRFRVY | 0.82 |
| GST-SANT, P11938 S392A; H393A; Y394A (protein) KASFTDEEDEFILDVVRKNPTRRTTHTLYDEIAAAVPNHTGNSIRHRFRVY | 0.21 |

Consider the additional binder presented here.
Which ratio to parent value belongs to GST-SANT, P11938 N401A; S402A; I403A (protein) KASFTDEEDEFILDVVRKNPTRRTTHTLYDEISHYVPNHTGAAARHRFRVY ? 0.97
